# measuredOn: Human bradykinin B2 receptor aequorin cell line (Homo sapiens, UniProt P30411)
# Sequence (P30411 1-391): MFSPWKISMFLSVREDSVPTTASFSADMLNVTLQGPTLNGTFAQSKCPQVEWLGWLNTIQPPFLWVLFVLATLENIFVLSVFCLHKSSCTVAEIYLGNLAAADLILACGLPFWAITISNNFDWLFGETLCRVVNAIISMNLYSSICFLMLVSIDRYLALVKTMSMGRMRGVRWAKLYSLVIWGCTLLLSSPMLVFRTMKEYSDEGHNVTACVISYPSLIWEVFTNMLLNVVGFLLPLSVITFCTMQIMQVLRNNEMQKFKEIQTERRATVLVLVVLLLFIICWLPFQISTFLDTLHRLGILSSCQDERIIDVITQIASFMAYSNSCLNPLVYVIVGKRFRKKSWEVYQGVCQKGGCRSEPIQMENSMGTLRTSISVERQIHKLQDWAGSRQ
# runDescription: Bradykinin B2 receptor antagonistic activity by intracellular calcium assay (Fluo-4, BK agonist)
# appliedConditions: human B2 receptor cells, Fluo-4 calcium assay, agonist BK at EC80, with washing step
pIC50: −log10 of the molar value.
quantityKind: pIC50

Nc1ccc(/N=N/c2ccccc2O)c(N)n1 [Compound IV]; 4.96
Nc1nc(N)c(/N=N/c2ccccc2)cc1O [Compound II]; 4.88
Nc1ccc(/N=N/c2ccccc2)c(N)n1 [Compound I]; 4.50
Nc1ccc(/N=N/c2ccc(O)cc2)c(N)n1 [Compound III]; 4.67
